# target_system: HLA-B*07:02 (Homo sapiens, UniProt P01889)
# protocol_details: HLA-peptide competition binding assay, B*07:02
# assay_context: read-out: IC50 nM, target assay B*07:02
Where no end group is shown, it is not given here.
Quick rule for you: IC50 under 2000 nM gets Yes, anything else gets No.

WMRLLPLLAL [WMRLLPLLAL, reference compound] : No
SASVQRADTSL : Yes
APVIKARMM : No
IPSDLERRIL : No
LPLLALLAL [LPLLALLAL] : Yes

====

Examples of molecules with documented IC50 follow.
# target_system: HLA-A*02:01 (Homo sapiens, UniProt P04439, D140Y/D185E/D98H/E176V/E277Q/G131W/G231S/I119V/I121R/I166T/I218V/L300P/L318F/N151K/N90K/P208A/P217A/Q86G/Q94H/R138H/R169H/T345S)
# protocol_details: HLA-peptide competition binding assay, A*02:01
# assay_context: read-out: IC50 nM, target assay A*02:01
Where a SMILES comes first, the peptide text is derived from it.
value_kind: IC50 (nM)

CC(C)C[C@H](NC(=O)[C@@H](N)CCCNC(=N)N)C(=O)N[C@@H](CCCNC(=N)N)C(=O)N1CCC[C@H]1C(=O)N[C@@H](CC(C)C)C(=O)N[C@@H](CS)C(=O)N[C@@H](CS)C(=O)N[C@H](C(=O)N[C@@H](C)C(=O)O)[C@@H](C)O [reference compound] (H-RLRPLCCTA-OH) : 8230
CC[C@H](C)[C@H](NC(=O)[C@H](CO)NC(=O)[C@@H](NC(=O)[C@H](CS)NC(=O)[C@H](CS)NC(=O)[C@H](CCC(N)=O)NC(=O)[C@H](CCC(=O)O)NC(=O)[C@@H](NC(=O)[C@@H](NC(=O)CN)[C@@H](C)CC)C(C)C)[C@@H](C)O)C(=O)O [reference compound] (H-GIVEQCCTSI-OH) : 7450
CC[C@H](C)[C@H](NC(=O)[C@H](CC(N)=O)NC(=O)[C@H](C)NC(=O)[C@H](CC(C)C)NC(=O)[C@@H](N)CCCCN)C(=O)N[C@@H](CCC(N)=O)C(=O)N[C@@H](CS)C(=O)N[C@@H](CC(C)C)C(=O)N[C@@H](CS)C(=O)N[C@@H](CC(C)C)C(=O)O [reference compound] (H-KLANIQCLCL-OH) : 97
CC[C@H](C)[C@H](NC(=O)[C@H](CC(N)=O)NC(=O)[C@H](C)NC(=O)[C@H](CC(C)C)NC(=O)[C@@H](N)CCCCN)C(=O)N[C@@H](CCC(N)=O)C(=O)N[C@@H](CS)C(=O)N1CCC[C@H]1C(=O)N[C@@H](CS)C(=O)N[C@@H](CC(C)C)C(=O)O [reference compound] (H-KLANIQCPCL-OH) : 121
CC(C)C[C@H](NC(=O)[C@@H](N)[C@@H](C)O)C(=O)N[C@@H](CO)C(=O)N[C@@H](CO)C(=O)N[C@@H](CCCNC(=N)N)C(=O)N[C@H](C(=O)N[C@@H](CS)C(=O)N[C@@H](CS)C(=O)N[C@@H](CCCNC(=N)N)C(=O)N[C@H](C(=O)O)[C@@H](C)O)C(C)C [reference compound] (H-TLSSRVCCRT-OH) : 2780
